folding stability dG unfold values by entry
# protocolDetails: folding stability dG unfold (combined trypsin and chymotrypsin); higher = more stable
Lab book: enter the figure in kcal/mol, no units written.

{"columns": ["itemSequence", "folding stability dG unfold, kcal/mol"],
 "data": [
  ["SAGGSAGGSAGGIWITMRPDNPDEFIDALRKKGKIRIVEVEPKNGNVIMRVTLDGQPLTSAGGSAGGSAGGS [r10_695_TrROS]", 0.368],
  ["SAGGMEVVENPGGNLKIIEKEPEGPEFVKTTTTTIKTFKNPGGSTSSTITTTTTTVKISKSKNPELLSAGGS [r16_802_JUSTAS]", -0.784]
]}

Consider the record given below.
Ask: // query folding stability dG unfold value for entry SAGGMPVPVTFPFAGADEVIAFATALEELVNAPVGLTLISPSGEEREVGDPDSIVDEDGFTVRVTVPASAGG [r13_620_TrMRF]
Result: 0.921

----------
Measured folding stability dG unfold values are reported for all entries that follow.
# protocolDetails: folding stability dG unfold (combined trypsin and chymotrypsin); higher = more stable
Number only, in kcal/mol; omit the unit.

{"columns": ["itemSequence", "measuredProperty", "resultUnit", "recordedNumber"],
 "data": [
  ["SAGGSEGMTVTELVKPPDSDEVLYVATDSAGNTFTLPGSLVKEALENGKTVEAPRPDGTAATLVLRSAGGSA [r2_301_JUSTAS]", "folding stability dG unfold", "kcal/mol", 3.1],
  ["SAGGMFKVYEVTGKDAKVTIVEAPLPDGGKLVVVEVWEGGKPVKPFLVPVAELEEIAKAIGIKPEELKSAGG [r13_108_TrMRF]", "folding stability dG unfold", "kcal/mol", 1.58],
  ["SAGGSAGGSAGMRIVLRLPRDVPLEALRRELEALGGEVRIETEDDPDGRLLFVVELRPKESAGGSAGGSAGG [r11_1050_TrMRF]", "folding stability dG unfold", "kcal/mol", 1.8],
  ["GEVVERLKLPDLELVEVRTTTEGDTTFVYVKLKRPDSYYVVKLTVTPATGEVTVTEEKKVSPNETLEEVLAS [r1_383_JUSTAS]", "folding stability dG unfold", "kcal/mol", 2.36],
  ["SADKVIIPFDSPEEIKGIIKEARKAGIPGKEIVIWSEDDWMYKIEVDPNKGNVEIEPVMPPEDLNDEMPSAG [r14_913_TrROS]", "folding stability dG unfold", "kcal/mol", 0.0128]
]}

Ask: Look at this sequence and give its reported folding stability dG unfold. SAGGSAGGSMRTITYEFPPGTTKEEVIEKVKELAKKEGLPIEKIESITEDPETGTYTVTVVVKSAGGSAGGS [r12_131_JUSTAS]
Result: 4.59

----------
# protocolDetails: folding stability dG unfold from chymotrypsin proteolysis; higher = more stable
measuredProperty: folding stability dG unfold
Record the result as a number with its unit.

{"columns": ["itemSequence", "folding stability dG unfold"],
 "data": [
  ["SAGGSAGGSAGMVTIYADPDGSYTAHFPDGSSASYSSLEEVKANLKAKYPDVKDVVIEKTSAGGSAGGSAGG [r11_806_JUSTAS]", "3.45 kcal/mol"],
  ["SAGGKTVTIKAKSLEDALKAIEALPSVDKVTITVEVNGKTVTITLTVKPPPPVKYELDKNGKLVKKEKSAGG [r13_183_TrROS_Hall]", "1.56 kcal/mol"],
  ["SAGKIKKIEVKEVTNENGEKYKKITIEVEKEGKKVEIIVNKNGEKFIKVEKNGKTITLPLDEALELLKKSAG [r5_157_TrROS_Hall]", "1.19 kcal/mol"],
  ["SMTRVKVELLITNPATGETFYYDIEATEEEAEEIAKELEESYPEKNATVTIKKKEVIPVEPPVVLPEGILSA [r9_14_JUSTAS]", "0.906 kcal/mol"],
  ["SAGGSMTVETSISRLPDGTYTVTVTFTLKNPDGSPVGTITIPVTMSPEVLAKTPLETVVAEAVAAASAGGSA [r2_421_JUSTAS]", "3.48 kcal/mol"]
]}

Ask: Given the sequence MRITLEHPDIKRLTIEFRPMPDGYFRMDIKVERPDGKPVPIPFPMRYEDGKMTPEMMEQMIDEAVEEALADS [r1_124_TrROS] , what is its reported folding stability dG unfold?
Result: 0.617 kcal/mol

Ask: Next up: SAMTKEEAKENGHIYIMVKIEVTWPNGGKREFPIFFPFPSLDEAKEQIRSFFRRMNFKVKIDDISIFPVSAG [r14_854_TrROS]
Result: 3.75 kcal/mol
